Molecular target: T1, rhesus monkey transferrin receptor (rhTfR) fused to EGFP, on CHO cells (rhesus monkey)
T1 construct: whole, on cells; also called rhesus monkey TfR
Assay: apparent Kd, flow cytometry, CHO cells
# rule met = Kd below 20 nM (exclusive); rule not met = Kd at/above 20 nM

Observe how each entry below is paired with its result.
- C5^V28 (VHH) VHH: EVQLVESGGGVVQPGGSLKLSCVASGADFSINFIRWYRQAPGKQREFVAGFSATGNTNYADSMKGRFTISRDNTKNAVYLQIDSLKPEDTAVYYCYMLDKWGQGTQVTVSS: rule not met
- C5^V22 (VHH) VHH: EVQLVESGGGVVQPGGSLKLSCVASGTDFSINFIRWYRQAPGKQREFVAGYTATGNTNYADSMKGRFTISRDNTKNAVYLQIDSLKPEDTAVYYCYMLDKWGQGTQVTVSS: rule met
- VHH A (C5) (VHH, form with the C-terminal myc-His6 tag (x = 1), since the VHHs were detected with anti-6His or anti-cMyc; the same holds for m12 to m126) VHH: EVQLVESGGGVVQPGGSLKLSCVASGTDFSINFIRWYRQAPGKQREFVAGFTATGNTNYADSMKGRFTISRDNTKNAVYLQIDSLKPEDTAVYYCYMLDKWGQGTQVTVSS: rule met

input: Identify whether the binder C5^V29 (VHH) VHH: EVQLVESGGGVVQPGGSLKLSCVASGADFSINFIRWYRQAPGKQREFVAGFTATGHTNYADSMKGRFTISRDNTKNAVYLQIDSLKPEDTAVYYCYMLDKWGQGTQVTVSS records Kd below 20 nM.
output: rule not met

input: Identify whether the binder B8^V4 (VHH) VHH: EVQLVESGGGVVQPGGSLRLSCAASGEIFSINFMRWYRQAPIKQREWVAGFTRDGSTNYPDSAKGRFTISRDNAKNTVYLQIDSLKPEDTAVYYCYMLDTWGQGTQVTVSS records Kd below 20 nM.
output: rule met

input: Identify whether the binder C5^h26 (VHH) VHH: EVQLVESGGGVVQPGGSLRLSCAASGTDFSINFIRWYRQAPGKGLEWVAGFTATGNTNYADSVKGRFTISRDNAKNTLYLQIDSLRPEDTAVYYCYMLDKWGQGTQVTVSS records Kd below 20 nM.
output: rule not met

All values here come from patent US20230414780A1.
